Where these numbers come from: paper PMC6556873

Protocol details: in vitro
Set-up: species or system CCD841, HEK293
Settings: human, hb2 cells, read-out: HB-2 Cells Viability (%)
Readout type: viability at 48 h, 10 µM (%)

[
  {
    "Molecule": "C=CC(=O)Nc1cccc(C(F)(F)F)c1",
    "Numeric readout": 103
  },
  {
    "Molecule": "CN(C(=O)CCl)C1CCCc2ccccc21 (stereo not drawn)",
    "Numeric readout": 6.6
  },
  {
    "Molecule": "O=C(CCl)Nc1nc(-c2c[nH]c3ccccc23)cs1",
    "Numeric readout": 4.8
  },
  {
    "Molecule": "Cc1nnc(NC(=O)CCl)s1",
    "Numeric readout": 99.8
  },
  {
    "Molecule": "O=C(CCl)Nc1cccc(Cl)c1Cl",
    "Numeric readout": 44.2
  },
  {
    "Molecule": "O=C(CCl)N1CCN(S(=O)(=O)c2ccccc2F)CC1",
    "Numeric readout": 7.1
  },
  {
    "Molecule": "O=C(CCl)Nc1ccc2c(c1)C(=O)c1ccccc1C2=O",
    "Numeric readout": 1.4
  },
  {
    "Molecule": "CN(C(=O)CCl)c1ccc([N+](=O)[O-])cc1",
    "Numeric readout": 12.9
  },
  {
    "Molecule": "O=C(CCl)Nc1ccc2c(c1)OCCCO2",
    "Numeric readout": 29.6
  },
  {
    "Molecule": "C=CC(=O)N1CCn2c(cc3c(Cl)cccc32)C1",
    "Numeric readout": 83.4
  },
  {
    "Molecule": "C=CC(=O)N1CCN(C(=O)c2ccc(Br)o2)CC1",
    "Numeric readout": 93.5
  },
  {
    "Molecule": "O=C1CC(C(F)(F)F)N(C(=O)CCl)c2ccccc2N1 (stereo not drawn)",
    "Numeric readout": 59.3
  },
  {
    "Molecule": "O=C(CCl)Nc1cccc(N2CCCC2=O)c1",
    "Numeric readout": 20.8
  },
  {
    "Molecule": "C=CC(=O)N1CC2CC3CC2C1C3OC (stereo not drawn)",
    "Numeric readout": 107
  },
  {
    "Molecule": "C=CC(=O)NC1CCCCC1n1cccn1 (stereo not drawn)",
    "Numeric readout": 91.4
  },
  {
    "Molecule": "CC(=O)Nc1cccc(NC(=O)CCl)c1",
    "Numeric readout": 35.9
  },
  {
    "Molecule": "Cc1ccc(C(=O)NNC(=O)CCl)cc1",
    "Numeric readout": 97.6
  },
  {
    "Molecule": "CC(NC(=O)NC(=O)CCl)C1CC2CCC1C2 (stereo not drawn)",
    "Numeric readout": 98.1
  },
  {
    "Molecule": "C=CC(=O)Nc1cc(N)ccc1F",
    "Numeric readout": 108
  },
  {
    "Molecule": "Cc1ccc(CNC(=O)CCl)s1",
    "Numeric readout": 98
  },
  {
    "Molecule": "N#CCN(C(=O)CCl)c1ccccc1",
    "Numeric readout": 43.7
  },
  {
    "Molecule": "O=C(CCl)N1CCSc2ccccc21",
    "Numeric readout": 30.2
  },
  {
    "Molecule": "O=C(CCl)Nc1ccc(N2CCCC2=O)cc1",
    "Numeric readout": 59.3
  },
  {
    "Molecule": "COC(=O)C1(NC(=O)CCl)CCCCC1",
    "Numeric readout": 98.3
  },
  {
    "Molecule": "CS(=O)(=O)c1ccc(Cl)c(NC(=O)CCl)c1",
    "Numeric readout": 45.5
  },
  {
    "Molecule": "CN(Cc1cccs1)C(=O)CCl",
    "Numeric readout": 11.3
  },
  {
    "Molecule": "Cc1n[nH]c(=O)c2c(NC(=O)CCl)oc(C)c12",
    "Numeric readout": 108
  },
  {
    "Molecule": "O=C1CN(C(=O)CCl)c2ccc(C(F)(F)F)cc2N1",
    "Numeric readout": 89.3
  },
  {
    "Molecule": "O=C(CCl)N1CCc2cc([N+](=O)[O-])ccc21",
    "Numeric readout": 21.2
  },
  {
    "Molecule": "C=CC(=O)N1CCCC(n2nc(C)nc2C)C1 (stereo not drawn)",
    "Numeric readout": 101
  },
  {
    "Molecule": "CC1CCC(C#N)(N(C)C(=O)CCl)CC1 (stereo not drawn)",
    "Numeric readout": 16.5
  },
  {
    "Molecule": "CC(C)(O)CNC(=O)CCl",
    "Numeric readout": 103
  },
  {
    "Molecule": "Cc1cc(C)c(C(C)NC(=O)CCl)cc1C (stereo not drawn)",
    "Numeric readout": 87.3
  },
  {
    "Molecule": "O=C(CCl)N(C1CC1)C1CCS(=O)(=O)C1 (stereo not drawn)",
    "Numeric readout": 88.7
  },
  {
    "Molecule": "CC(=O)NC1CCCN(C(=O)CCl)C1 (stereo not drawn)",
    "Numeric readout": 100
  },
  {
    "Molecule": "CS(C)(=O)=NC(=O)CCl",
    "Numeric readout": 96.1
  },
  {
    "Molecule": "O=C(CCl)N1CCCCCC1",
    "Numeric readout": 99.5
  },
  {
    "Molecule": "Cl.O=C(CCl)NCc1cccnc1",
    "Numeric readout": 106
  },
  {
    "Molecule": "Cc1cc(N2CCN(C(=O)CCl)CC2)nc(C(C)C)n1",
    "Numeric readout": 97.7
  },
  {
    "Molecule": "C=CC(=O)N1CCCC1C1COCCC1(C)O (stereo not drawn)",
    "Numeric readout": 107
  },
  {
    "Molecule": "COC(=O)c1c(NC(=O)CCl)sc2c1CCCCC2",
    "Numeric readout": 49.5
  },
  {
    "Molecule": "CCOC(=O)N1CCN(C(=O)CCl)CC1",
    "Numeric readout": 114
  }
]
